# system.tested: XOD (xanthine oxidase) enzyme (Sigma, derived from milk) (Bos taurus, UniProt P80457)
# Sequence (P80457 whole entry): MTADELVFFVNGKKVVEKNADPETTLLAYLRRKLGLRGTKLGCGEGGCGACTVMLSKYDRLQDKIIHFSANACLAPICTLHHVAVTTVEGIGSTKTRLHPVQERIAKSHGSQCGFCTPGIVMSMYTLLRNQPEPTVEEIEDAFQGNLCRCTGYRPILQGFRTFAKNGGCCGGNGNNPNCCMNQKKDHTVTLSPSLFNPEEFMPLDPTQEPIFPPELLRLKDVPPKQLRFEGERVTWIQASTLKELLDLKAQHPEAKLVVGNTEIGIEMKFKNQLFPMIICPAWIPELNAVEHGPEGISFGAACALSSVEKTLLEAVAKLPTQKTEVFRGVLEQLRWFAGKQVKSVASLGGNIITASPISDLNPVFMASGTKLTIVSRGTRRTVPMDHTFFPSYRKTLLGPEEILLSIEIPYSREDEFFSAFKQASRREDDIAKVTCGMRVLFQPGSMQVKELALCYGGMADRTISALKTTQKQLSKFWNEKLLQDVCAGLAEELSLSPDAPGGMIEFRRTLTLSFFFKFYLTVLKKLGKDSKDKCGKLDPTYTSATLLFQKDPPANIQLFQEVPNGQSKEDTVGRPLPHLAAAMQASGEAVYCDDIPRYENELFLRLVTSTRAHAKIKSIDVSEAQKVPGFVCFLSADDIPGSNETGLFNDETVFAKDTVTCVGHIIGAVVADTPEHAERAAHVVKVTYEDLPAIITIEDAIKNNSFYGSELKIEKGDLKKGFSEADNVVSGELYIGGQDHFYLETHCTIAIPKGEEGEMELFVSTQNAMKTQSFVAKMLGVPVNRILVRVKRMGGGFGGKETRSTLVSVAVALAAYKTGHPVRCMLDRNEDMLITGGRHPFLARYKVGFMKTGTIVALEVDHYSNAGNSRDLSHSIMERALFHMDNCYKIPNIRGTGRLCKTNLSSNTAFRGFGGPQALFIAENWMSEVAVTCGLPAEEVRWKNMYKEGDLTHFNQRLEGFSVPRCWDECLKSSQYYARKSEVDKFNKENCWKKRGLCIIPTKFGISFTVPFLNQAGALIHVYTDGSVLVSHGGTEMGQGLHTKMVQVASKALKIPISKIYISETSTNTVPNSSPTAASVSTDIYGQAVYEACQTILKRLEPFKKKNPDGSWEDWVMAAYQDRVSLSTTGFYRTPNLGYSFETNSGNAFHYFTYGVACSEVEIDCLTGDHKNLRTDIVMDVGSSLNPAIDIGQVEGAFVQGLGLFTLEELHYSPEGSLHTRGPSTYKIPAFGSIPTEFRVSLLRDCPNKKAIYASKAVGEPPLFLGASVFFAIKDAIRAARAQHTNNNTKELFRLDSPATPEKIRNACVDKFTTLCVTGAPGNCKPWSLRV
# test.summary: XOD enzyme activity inhibition (XOD enzyme activity detection kit, uric acid absorption at 295 nm)
# condition.info: half-inhibitory concentration on XOD, same reaction system
No end group written: not given here.
assay.readout: IC50 (µM)

* VPSGPLGPEGPR [Peptide S1] | 2750
